assay: chemical genetic growth profiling, strain panel (AID 1159580);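 note: tested at 20 µM; growth read once vehicle control cultures reached saturation at 30 °C; 1 = growth at the plate median or of vehicle wells; lower values mean less growth of the strain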; settings: S. cerevisiae deletion strains, growth OD, locus YJL154C, strain vps35, stronger effect = lower value
The whole screen tested about 5,500 compounds, of which about 2,000 (36%) were called active. Not shown: some 18% with an inconclusive outcome. This is one part of the list.

- compound: "CC[C@@]1(O)C[C@H](O[C@H]2C[C@H](N(C)C)[C@H](O)[C@H](C)O2)c2c(cc3c(c2O)C(=O)c2c(O)ccc(O)c2C3=O)[C@H]1C(=O)OC"
  normalized growth: 0.929
- compound: "COc1ccc(-c2coc3cc(O)ccc3c2=O)cc1"
  normalized growth: 0.982
- compound: "CC(=O)S[C@@H]1CC2=CC(=O)CC[C@]2(C)[C@H]2CC[C@@]3(C)[C@@H](CC[C@@]34CCC(=O)O4)C12 (some centres not stated)"
  normalized growth: 1.02
- compound: "COc1ccc(-c2coc3cc(O)ccc3c2=O)c(O)c1O"
  normalized growth: 0.988
- compound: "CCCCNC(=O)NS(=O)(=O)c1ccc(C)cc1"
  normalized growth: 1.01
- compound: "COc1ccc(C(=O)CC(=O)O)c2c1C=CC(C)(C)O2"
  normalized growth: 0.996
- compound: "O=C(O)/C=C/c1ccc(O)c(O)c1"
  normalized growth: 0.999
- compound: "c1ccc2c(c1)sc1ccccc12"
  normalized growth: 0.924
- compound: "O=C(O)CCCc1ccccc1"
  normalized growth: 0.976
- compound: "O=C(c1ccc(OCCN2CCCCC2)cc1)c1c(-c2ccc(O)cc2)sc2cc(O)ccc12"
  normalized growth: 1.03
- compound: "C[C@]12CCC(=O)C=C1C=CC1C2CC[C@@]2(C)C1CC[C@@]21CCC(=O)O1 (some centres not stated)"
  normalized growth: 0.979
- compound: "CC[C@@]1(O)C[C@H](O)c2c(cc3c(c2O)C(=O)c2c(O)ccc(O)c2C3=O)[C@H]1C(=O)OC"
  normalized growth: 0.996
- compound: "O=C(/C=C/c1ccc(O)c(O)c1)OC(Cc1ccc(O)c(O)c1)C(=O)O (configuration not stated)"
  normalized growth: 1.02
- compound: "CNCCC(Oc1ccc(C(F)(F)F)cc1)c1ccccc1 (configuration not stated)"
  normalized growth: 1.01
- compound: "O=C(/C=C/c1ccc(O)c(O)c1)OCCc1ccccc1"
  normalized growth: 0.962
- compound: "OCCc1ccccc1"
  normalized growth: 0.969
- compound: "C[C@]12CCC(=O)C=C1C=CC1C2CC[C@@]2(C)C1CC[C@@]2(O)CCC(=O)O (some centres not stated)"
  normalized growth: 1.01
- compound: "CC1(O)CC2C(CC1O)C2(C)C (configuration not stated)"
  normalized growth: 0.994
- compound: "CCCc1cc(C(N)=S)ccn1"
  normalized growth: 0.96
- compound: "CN(C)CCCC1(c2ccc(F)cc2)OCc2cc(C#N)ccc21 (configuration not stated)"
  normalized growth: 0.989
- compound: "CC[C@@]1(O)C[C@H](O[C@H]2C[C@H](N(C)C)[C@H](O)[C@H](C)O2)c2c(cc3c(c2O)C(=O)c2c(O)cccc2C3=O)[C@H]1C(=O)OC"
  normalized growth: 0.95
- compound: "Cc1ccc(S(=O)(=O)NC(=O)NN2CCCCCC2)cc1"
  normalized growth: 0.989
